- test-method-notes: label from the status in PepcDB records
parameter: protein production

# annotated cases, reported protein production shown
sequence-string	parameter	result
SPAYQEDREEDTCTIGEREKTIATQRIKGFGVENPVLPESPPASMSSVMKNNPLYGDITLEEAMEERKKSPSWTIEEYDKHSVHTNLSGHLKENPNDLRFWLGDTYTPGFDTLLKKKKKRNKRSKLCHMGLILLLVASILVTIVTLSTIFS	protein production	failed
IEGLFIFDRNQKCVYANHIALNLFGYTLEEVHSKSILDFIALGFRNKVKRFSQNRDQPPYEVLGIKNDGSLFPIMIRGKAIELG	protein production	failed
MRMNMKKISLSLLTLGVLSGLSINASALPADFPVMPAATAPVSQYVTAVNADSSITFRLFAPTAKQVSVFTGSTPDSIVSHAMTKDEAGVWSFKTPVQAPNLYEYFFSVDGFRTIDTGTAFTKPQRQVNTSLILVPGSILDVRQIPHGELRTLTYHSNALKSERQMYVWTPPGYSESSKPLPVLYFYHGFGDTGASAVVQGRIPQMMDNLLAEKKIEPMLVVIPDTETDVPGIIPEEYPPQERRKVFYPRNALAADRELIHDIIPAIGKRFNVRQDANGRALAGLSQGGYQALVSGMSHLDHFGWLATFSGVTTETVPNMAVAAQLERPEQINQQLKNLTVVIGETDNITGKDIAGLKTMLEQKNIRFDYTHYPNLGHEMDVWRPAYSEFVQKLFK	protein production	failed
MVISSKITDDCSYVKCLSFMMKSRTGNILLAQPENLAHDDDLSQSLLSQVTAVWLWTSLSYGGKPIFNRGISQLVTKKWTIIFNTENTNNHVSLPAPQEISPRLRLASSGTWRLVIGTWE	protein production	failed
KLLAEALELTEDQYVVSFQSQFGRAKWVTPSTQDLFGKLPKQGVTELDVFCPGFLADCLETMEEIALMGREQFYEAGGKSYRYIPCLNDNPDWIDALVALAEENLGSWR	protein production	failed
MSGQHGHDHSHAVVTQGNAKKLTIALSLTVTFLIVEVVAGFITQSLALLSDAAHMFTDAAALAIALAAIQVAKRPADDKRTFGYQRFEILAALFNASMLFMVAIYILYEAYQRFTHPPEIQSLGMLLVAVIGLIINLISMKILVSSAQDSLNVKGAYLEVLSDALGSVGVILGALVIYFTQWYWVDTLVAVLIGFWVLPRTWILLKQSINILLEGVPEEVDIEKLRDDLLALEGVESIHQLKVWAITSKNVHLTVHLFAPQADRNRLYRTAYEMLSHEHGIAEITLQIEEDECLAHSHTHIEKNHQH	protein production	failed

input: Endpoint output: protein production of MSKNIGLNAIEMSYLRQSLSLSAAQVGQLTNHSEAEVLAWENAETQAPELAQKKLLDIDDIIEMQVLNTTDGIEALFKKEPKRHLAFVVYPTQAIYTQYNPEFLSSLPLTELYNTAAWRIKKECKLVLEVDVSLINLNVEAYKAYREQNGLSESRESRAKWAATQL . Value?
output: not failed

input: Can you handle MKNIKIMRLVTGEDIIGNISESQGLITIKKAFVIIPMQATPGKPVQLVLSPWQPYTDDKEIVIDDSKVITITSPKDDIIKSYESHTSEIITPSGLITET next?
output: not failed

###

- test-method-notes: label from the status in PepcDB records
parameter: protein production

sequence-string	protein production
YWGPLDVGEAKSLPGMEDPKLVYIPSIAPSNMVLYRGDKYSELDGKILVGALKLTHINVVGINDGKLTESQRLLEKLGERIRDITISPDGYIYFSTDSGKIFRLTEQ	failed
MGHHHHHHSHMSGEKTVVCKHWLRGLCKKGDQCEFLHEYDMTKMSECYFYSKFGECSNKECPFLHIDPESKI	not failed
MLARAALILLFFGLLGDSGAGQGRDGNALFDRGRYVAAAETYRAGLDALDDTTGSVYTGLQNNLGLALHRQERLGAARAALRKARRAATTEAERVRVLFNAATVAAEMNDRTKALDRYRTVLLLDPTHEAARFNYEYLKRQAGGGAGSDPPTLEPSPFAQKLKERADALVARTQYTTAAALLRDGMQKDSTVRAYRDFVTRIEEIAQIARSDP	failed
MKDMKMQSSPETMMTRIPTPDPHSTGVREDAMDSVCKPWKLYENPYYCSSQSQQHQHQRKAFIWDLNFIKVFMESELGKAQDEIKELKAELDYERKARRRAELMIKKLAKDVEEERMAREAEEMQNKRLFKELSSEKSEMVRMKRDLEEERQMHRLAEVLREERVQMKLMDARLFLEEKLSELEEANRQGERERNRMMKPKILERACSSPARRRCENPQIKRGINPFPRVMRAIRSKSEKWGSKLECQKVQLKILLRQKTTPRCTPLLSSPPP	failed
MKNVLYICIGALLAVLAFSSCNDGIDIRQDYDFSLSSWYLQKQIATGETVEIRFYLDREGDYEKAEYEIGYIQMEGKGEVSDCEGVKLVNREVKPLAEVPGLDTENPVKQVFTLFYRSTSARRSELKFFVRDNFGQEREMTVTFDTESGTTEE	failed
MKVYLHFSPQFFANTYLIGNEITKEAVIIDPAKITEKMIHQIEKNEFNLKAVLLTHDLEHPYETGLNTILKIYSPKVYAGSCFSENVTINTLRGDGCIDVAGYSVRYFAIPAHSSYSYMFQIENMVFTGTSLSAGMIGQTSNMYAERTLRNILKTKLMCFEDNLIIMPFYGPPTSIGVERKYNASFFQDLEHHHHHH	failed

input: Endpoint output: protein production of MKKLSFFLIATLSLGACSTATSPTGRHQVFSGVSQQQLNQLGEQAFVEIKAKEKISGNVRQNAYVRCVVDALVTELPLQWRHVKWETVLFLNEEPNAFALPGGKVGVNTGIFRAAKNQEQLAAVLGHEIGHVVSRHHEERITWQLGTQAGLGLLGVLAGTAYGDSAATAVNQIGGLTAQAAFLLPGSRTQEREADIVGQRLMAQAGFDPIQAVYLWKNMLAIAGQRPPQWLSTHPDPTNRIRQLEQQSAVLASVYAQARDAGRVPHCSPAALEHHHHHH . Value?
output: failed

input: Can you handle MERNRRRNADNNTVVDQGGVFFDGCDTDEAFGPSSRDVPFQHDSVKSKPNLYGGG next?
output: not failed

input: Can you handle MKNLYILIFACLAISAQGQQLLNSDFENWTNHPGSGGYSSYDEADNWASGNAAVNIAPGLTPPTTKTTDAQHGNAAVKLTTQSIFGQIAAGNLFTGKFQLNLSNPVKSVQMGIPYVSRPSAFNVYYKYAPVNGDSCAIYVLLTKYNTSTKKTDTIGRGHFSSTANVSVYTLLHIPVTYTSTAAPDSIAMVFTSSADGGNFRGQVGSSLTVDNFSLEFEELSIATSLAAVSAVLYPNPAQSRVALSNAPSESGTVYFYNVAGKLVSSQKWTGTVSPEFALDNMPAGFYTCKFITSDTAVFSGKLLITE next?
output: failed

input: Can you handle MDRTEQKSIIEGLLFVSGDEGIYPEQIAKVLEIEGNEVIDILEEMQKECEGAHRGLQIVQYAKVYRFATKKEHASYYQKLIEIPTAASLSQAALETLAIVAYRQPITRTEMEEIRGVKTDKALQTLVSHLLIKEMGRAEGPGRPILYGTTKEFLDTFGLKTLDDLPPLSEENEQMNEADLFFGSLQEISK next?
output: failed

input: Can you handle MSGILALGAYVPERVMTNADFEAYLDTSDEWIVTRTGIKERRVAAEDEYTSDLAFKAVEDLLRRHPGALEGVDAVIVATNTPDALFPDTAALVQARFGLKAFAYDLLAGCPGWIYALAQAHALVEAGLAQKVLAVGAEALSKIIDWNDRATAVLFGDGGGAAVVGKVREGYGFRSFVLGADGTGAKELYHACVAPRLPDGTSMKNRLYMNGREVFKFAVRVMNTATLEAIEKAGLTPEDIRLFVPHQANLRIIDAARERLGLPWERVAVNVDRYGNTSTASIPLALKEALDAGRIREGDHVLLVSFGAGLTWAAAVLTWGGA next?
output: not failed

input: Can you handle MPIKKNSHVKTTEMNKYPVLQLKRDPEAIHHYLNGEIRILVPTEYQRIKNEISQKRHRTLFDVLMITGMRYVEVQRLWDHKEWYLKKKNIIHLPEEAQKKHKRTQQERTIHPLPGMFELLLDDFFEARKPPAESNWNRDLRKWAKDAGLNPYGLSAKTTRKTLESWCIAAGMLESTVCLRQGHDNLTSMKHYQGLAFSADELKDIEKQLTVWGMLK next?
output: failed

input: Can you handle MMWNLIKNEFIKLRYKRKYIICTIVFALICIGFCAVYVKMQKASTPDAAIQYYKDAKSSLQSKEKNIKDATLKQQYDQQISQLDEQIKQYQQSKNQGNSNWKKQLKNTIDSLKDEKNQAADITENTAKESYNKQIVFYQYLLNHNIKPQDNNSLSTFQLLQSLLKLIGYILIPIIIAIFSADIVSGEYTPPTIKVLLSKPASRAKILASKFIASAISCIAIILLIELITYLITGIAYGFDNPSYPVLVGTKYMNSGIKLTQDSTGLIPILGSSYVIPLWQFLIEMFLFQILFIIGCCSFFLLLSVVLRSSVLSMTLSIMIVIALNIISQISALHVIMPFLFTNYGSPYDILTNSIPSTSGLTFTTAIFGVIYLIIFTILCYGIANYSFKKKDMTV next?
output: failed

input: Can you handle MDSNWINCPSVFSSSSSSSRRCQSRSDLYLGGGYEDLEGEDDLKAEFICPFCAEDFDIVGLCCHIDEEHPVEAKNGVCPVCTKRNLCLFLDERFYVQRRRRLRRGGYSSTYLALKKELREANLQSLLGGSSSFTSSTNIDSDPLLSSFMFNSPSVNQSANKSATPVTVGNAATKVSIKESLKRDIQEAPLSGEDQEKAKKSEFVRGLLLSTMLEDDF next?
output: failed
